System: Rattus norvegicus
assay-explanation: Cmax in rat at 5 mg/kg, po
Type: ADME, organism-based
Parameters: dose 5 mg/kg, route oral
experimental-context: in vivo
measured-metric: Cmax
Please give the number followed by its unit.

Return reported Cmax; argument: C=C[C@@H]1C[C@]1(NC(=O)[C@@H]1C[C@@H](Oc2cc(-c3csc(NC(C)C)n3)nc3c(Br)c(OC)ccc23)CN1C(=O)[C@@H](CC(=O)NC1CCCC1)C(C)(C)C)C(=O)O
850 nM

* * *

assay-explanation: Clearance in rat at 2 mg/kg, iv
Format: ADME, organism-based
Set-up: dose 2 mg/kg, route intravenous
experimental-context: in vivo
measured-metric: clearance (mL/min/kg)
A number alone suffices; assume mL/min/kg.

What value of measured clearance is listed for C=C[C@@H]1C[C@]1(NC(=O)[C@@H]1C[C@@H](Oc2cc(-c3csc(NC(C)C)n3)nc3c(Br)c(OC)ccc23)CN1C(=O)[C@@H](CC(=O)NC1CCCC1)C(C)(C)C)C(=O)O ?
22
